Sourced from patent EP0670321A1

Measured IC50 of individual entries
Target: recombinant human aldose reductase (Homo sapiens, UniProt P15121)
Assay: Aldose reductase inhibition (decrease with time in absorbance at 340 nm, NADPH / DL-glyceraldehyde)
Details: 0.1M phosphoric acid buffer, 25°C, absorbance 340 nm, read-out: IC₅₀
Give your result as the value with the unit written after it.

// worked examples, IC50 included
molecule: COC(=O)c1cc2c([nH]1)c1c(C(=O)O)cc(C(=O)O)nc1c1ncoc21
test.result: 0.26 µM
--
molecule: COC(=O)c1cc2c([nH]1)c1c(C(=O)O)ccnc1c1ncoc21
test.result: 1.7 µM
--
molecule: COC(=O)c1cc(C(=O)O)c2c(n1)c1ncoc1c1cc(C(=O)OC)[nH]c12
test.result: 1.3 µM

Look up IC50: CCCCCNC(=O)c1cc(C(=O)OC)nc2c3ncoc3c3cc(C(=O)OC)[nH]c3c12
93 µM
